These measurements were taken from ChEMBL document CHEMBL5442741.

- experimental_system: Eukaryotic elongation factor 2 kinase (Homo sapiens) (UniProt O00418)
- Sequence (whole entry): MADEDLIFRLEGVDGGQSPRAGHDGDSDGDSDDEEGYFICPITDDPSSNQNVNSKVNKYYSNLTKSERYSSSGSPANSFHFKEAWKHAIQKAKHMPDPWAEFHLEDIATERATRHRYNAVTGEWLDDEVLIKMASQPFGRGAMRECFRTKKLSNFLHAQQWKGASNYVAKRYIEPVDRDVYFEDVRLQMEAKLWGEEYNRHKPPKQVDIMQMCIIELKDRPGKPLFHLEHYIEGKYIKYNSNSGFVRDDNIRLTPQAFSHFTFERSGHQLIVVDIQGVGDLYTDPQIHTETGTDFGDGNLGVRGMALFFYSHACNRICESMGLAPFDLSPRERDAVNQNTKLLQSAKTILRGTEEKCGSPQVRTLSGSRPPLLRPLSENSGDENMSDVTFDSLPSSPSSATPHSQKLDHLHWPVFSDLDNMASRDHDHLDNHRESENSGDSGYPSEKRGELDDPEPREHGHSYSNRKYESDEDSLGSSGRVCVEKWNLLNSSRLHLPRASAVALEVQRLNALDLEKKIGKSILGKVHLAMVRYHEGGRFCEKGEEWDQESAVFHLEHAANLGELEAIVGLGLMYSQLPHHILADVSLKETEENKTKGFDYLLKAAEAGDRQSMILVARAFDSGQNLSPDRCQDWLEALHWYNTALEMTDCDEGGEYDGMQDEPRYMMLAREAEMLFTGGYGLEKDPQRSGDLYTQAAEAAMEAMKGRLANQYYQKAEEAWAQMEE
- measurement_notes: Enzymatic radiometric [Km ATP] KinaseProfiler LeadHunter assay, kinase: eEF-2K, catalogue number: 14-654KP The assay has been performed by Eurofins Discovery.
- experimental_conditions: ATP concentration 15.0 uM, Test compound concentration 10.0 uM
recorded_endpoint: Activity (%)

{"columns": ["smiles_code", "experimental_system", "experimental_result"],
 "data": [
  ["COc1ccc([C@@H](Cc2nnn[nH]2)NC(=O)c2ncnc3[nH]ccc23)cc1", "Eukaryotic elongation factor 2 kinase (Homo sapiens) (UniProt O00418)", 96],
  ["Cn1ncc(-c2cc3c(N[C@@H](c4ccc5c(n4)OCCO5)C(C)(C)C)ncnc3[nH]2)c1C#N", "Eukaryotic elongation factor 2 kinase (Homo sapiens) (UniProt O00418)", 124],
  ["COc1ccc([C@H](Cc2nnn[nH]2)NC(=O)c2ncnc3[nH]ccc23)cc1", "Eukaryotic elongation factor 2 kinase (Homo sapiens) (UniProt O00418)", 96]
]}

* * *

- experimental_system: Ephrin type-A receptor 5 (Homo sapiens) (UniProt P54756)
- Sequence (P54756 whole entry): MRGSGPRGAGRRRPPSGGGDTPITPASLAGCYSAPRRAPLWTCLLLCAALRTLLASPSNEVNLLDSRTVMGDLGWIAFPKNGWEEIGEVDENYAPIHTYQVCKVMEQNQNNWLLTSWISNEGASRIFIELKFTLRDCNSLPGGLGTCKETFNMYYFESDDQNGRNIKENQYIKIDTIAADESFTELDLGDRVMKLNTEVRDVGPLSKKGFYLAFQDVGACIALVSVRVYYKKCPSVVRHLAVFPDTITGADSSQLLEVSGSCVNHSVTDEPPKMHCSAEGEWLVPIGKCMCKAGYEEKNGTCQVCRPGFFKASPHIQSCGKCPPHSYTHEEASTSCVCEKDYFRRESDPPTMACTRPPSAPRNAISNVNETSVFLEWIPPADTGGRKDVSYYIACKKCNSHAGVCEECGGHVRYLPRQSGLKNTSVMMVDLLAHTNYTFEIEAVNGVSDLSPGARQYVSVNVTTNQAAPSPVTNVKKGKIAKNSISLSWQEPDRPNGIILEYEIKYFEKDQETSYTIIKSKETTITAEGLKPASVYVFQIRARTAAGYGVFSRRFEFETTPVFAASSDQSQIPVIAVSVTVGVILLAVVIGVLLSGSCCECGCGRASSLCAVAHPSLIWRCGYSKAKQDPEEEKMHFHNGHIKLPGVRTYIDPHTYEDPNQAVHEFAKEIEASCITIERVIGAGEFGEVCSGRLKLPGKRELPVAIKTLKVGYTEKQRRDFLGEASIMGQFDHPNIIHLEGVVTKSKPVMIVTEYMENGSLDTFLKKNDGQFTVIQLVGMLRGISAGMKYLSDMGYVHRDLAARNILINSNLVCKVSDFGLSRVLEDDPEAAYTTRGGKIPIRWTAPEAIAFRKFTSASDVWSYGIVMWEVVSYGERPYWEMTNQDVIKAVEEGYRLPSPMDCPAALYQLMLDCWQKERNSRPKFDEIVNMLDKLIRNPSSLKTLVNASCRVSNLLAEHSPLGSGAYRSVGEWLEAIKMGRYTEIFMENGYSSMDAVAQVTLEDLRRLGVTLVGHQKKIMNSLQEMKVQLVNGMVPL
- measurement_notes: Enzymatic radiometric [Km ATP] KinaseProfiler LeadHunter assay, kinase: EphA5, catalogue number: 14-639KP The assay has been performed by Eurofins Discovery.
- experimental_conditions: ATP concentration 10.0 uM, Test compound concentration 10.0 uM
recorded_endpoint: Activity (%)

{"columns": ["smiles_code", "experimental_system", "experimental_result"],
 "data": [
  ["Cn1ncc(-c2cc3c(N[C@@H](c4ccc5c(n4)OCCO5)C(C)(C)C)ncnc3[nH]2)c1C#N", "Ephrin type-A receptor 5 (Homo sapiens) (UniProt P54756)", 102],
  ["CNC(=O)Cn1cc(-c2cc3c(N[C@@H](c4ccc5c(c4)S(=O)(=O)CCC5)C(C)C)ncnc3[nH]2)cn1", "Ephrin type-A receptor 5 (Homo sapiens) (UniProt P54756)", 80],
  ["CNCc1cc(-c2cc3c(N[C@@H](c4ccc5c(c4)S(=O)(=O)CCC5)C(C)C)ncnc3[nH]2)co1", "Ephrin type-A receptor 5 (Homo sapiens) (UniProt P54756)", 78],
  ["CC(C)[C@@H](Nc1ncnc2[nH]c(C(=O)N[C@@H]3CCN(C)C3)cc12)c1ccc2c(c1)S(=O)(=O)CCC2", "Ephrin type-A receptor 5 (Homo sapiens) (UniProt P54756)", 100],
  ["COc1ccc([C@H](Cc2nnn[nH]2)NC(=O)c2ncnc3[nH]ccc23)cc1", "Ephrin type-A receptor 5 (Homo sapiens) (UniProt P54756)", 102],
  ["Cc1nn(C)cc1-c1cc2c(N[C@H](c3ccc4c(c3)S(=O)(=O)CCC4)C(C)C)ncnc2[nH]1", "Ephrin type-A receptor 5 (Homo sapiens) (UniProt P54756)", 74],
  ["CC(C)[C@H](Nc1ncnc2[nH]ccc12)c1ccc2c(c1)S(=O)(=O)CCC2", "Ephrin type-A receptor 5 (Homo sapiens) (UniProt P54756)", 102],
  ["C[C@H](C(=O)O)[C@@H](NC(=O)c1ncnc2[nH]ccc12)c1ccc(Br)cc1", "Ephrin type-A receptor 5 (Homo sapiens) (UniProt P54756)", 99]
]}
